- Test system: 922993-354-T-J3-PDC complex spheroids, viability
- PROTOCOL_DETAILS: Anticancer human tumor 922993-354-T-J3-PDC patient-derived endometrial carcinoma cell line growth inhibition [GQUAD]
- CONDITION_CONTEXT: second compound 0.0316 µM; first compound 0.316 µM; stronger effect = lower value

COMPOUND	viability, T/C, %
CC(=O)O[C@H]1C(=O)[C@@]2(C)[C@H]([C@H](OC(=O)c3ccccc3)[C@]3(O)C[C@H](OC(=O)[C@H](O)[C@@H](NC(=O)c4ccccc4)c4ccccc4)C(C)=C1C3(C)C)[C@]1(OC(C)=O)CO[C@@H]1C[C@@H]2O + Cc1[nH]c2ccc(F)cc2c1-c1nc2c3cccnc3c3ncccc3c2[nH]1	124
CC(C)n1c(=O)n(C)c2cnc3cc(F)c(-c4ccc(OCCCN5CCCCC5)nc4)cc3c21 + CN(C)c1ccc(Nc2c3ccc(NC(=O)CCN4CCCC4)cc3nc3cc(NC(=O)CCN4CCCC4)ccc23)cc1	99.3

====

- System: 922993-354-T-J3-PDC complex spheroids, viability
- PROTOCOL_DETAILS: Anticancer human tumor 922993-354-T-J3-PDC cell line growth inhibition [GQUAD];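 also: spheroids exposed to compounds for seven days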
- CONDITION_CONTEXT: curve of first compound; second compound 1 µM
- Text: DNA G-quadruplex Stabilizer Agents in Combinations in Complex Spheroids A high-throughput screen of multi-cell type tumor spheroids was designed to identify active combinations of DNA G-quadruplex stabilizer agents and targeted small molecules. […] Compounds. […] If the clinical Cmax for an agent had not been determined, the highest concentration tested was 10 microM. […]
pIC50: −log10 of the molar value.

COMPOUND	pIC50
CC[C@@]1(O)C(=O)OCc2c1cc1n(c2=O)Cc2cc3c(CN(C)C)c(O)ccc3nc2-1 + Cc1cnc(CNC(=O)c2c(=O)c3ccc(N4CCCN(C)CC4)nc3n3c2sc2ccccc23)cn1	7.09
C=CC(=O)N1CCN(c2nc(=O)n(-c3c(C)ccnc3C(C)C)c3nc(-c4c(O)cccc4F)c(F)cc23)C(C)C1 (stereo unspecified) + CN(C)c1ccc(Nc2c3ccc(NC(=O)CCN4CCCC4)cc3nc3cc(NC(=O)CCN4CCCC4)ccc23)cc1	< 5.00
Cc1[nH]c2ccccc2c1CCNCc1ccc(/C=C/C(=O)NO)cc1 + Cc1[nH]c2ccc(F)cc2c1-c1nc2c3cccnc3c3ncccc3c2[nH]1	< 6.50
CC[C@@]1(O)C(=O)OCc2c1cc1n(c2=O)Cc2cc3c(CN(C)C)c(O)ccc3nc2-1 + CN(C)c1ccc(Nc2c3ccc(NC(=O)CCN4CCCC4)cc3nc3cc(NC(=O)CCN4CCCC4)ccc23)cc1	6.58
COc1cccc2c1C(=O)c1c(O)c3c(c(O)c1C2=O)CC(O)(C(=O)CO)CC3OC1CC(N)C(O)C(C)O1 (stereo unspecified) + CN(C)c1ccc(Nc2c3ccc(NC(=O)CCN4CCCC4)cc3nc3cc(NC(=O)CCN4CCCC4)ccc23)cc1	5.26
Cc1cccc(N(C)C(=O)C2C(O)CCN2c2nc(C)cc(C(F)(F)F)c2C#N)c1 (stereo unspecified) + CN(C)c1ccc(Nc2c3ccc(NC(=O)CCN4CCCC4)cc3nc3cc(NC(=O)CCN4CCCC4)ccc23)cc1	< 5.00
Nc1ccn(C2OC(CO)C(O)C2(F)F)c(=O)n1 (stereo unspecified) + CN(C)c1ccc(Nc2c3ccc(NC(=O)CCN4CCCC4)cc3nc3cc(NC(=O)CCN4CCCC4)ccc23)cc1	> 7.50
COc1ccc([C@@H](O)c2cc(-c3ncnc4cc(N5CCOCC5)ccc34)c(F)cc2Cl)nn1 + CN(C)c1ccc(Nc2c3ccc(NC(=O)CCN4CCCC4)cc3nc3cc(NC(=O)CCN4CCCC4)ccc23)cc1	< 5.00
Cc1[nH]c2ccccc2c1CCNCc1ccc(/C=C/C(=O)NO)cc1 + Cc1cnc(CNC(=O)c2c(=O)c3ccc(N4CCCN(C)CC4)nc3n3c2sc2ccccc23)cn1	> 9.00
Nc1ccn(C2OC(CO)C(O)C2(F)F)c(=O)n1 (stereo unspecified) + Cc1[nH]c2ccc(F)cc2c1-c1nc2c3cccnc3c3ncccc3c2[nH]1	> 7.50
CC1COCCN1c1cc(C2(O)CC3CCC(C2)O3)c2cnn(-c3ccn[nH]3)c2n1 (stereo unspecified) + Cc1[nH]c2ccc(F)cc2c1-c1nc2c3cccnc3c3ncccc3c2[nH]1	6.45
